Molecular target: Zap1 (UniProt P47043)
Sequence: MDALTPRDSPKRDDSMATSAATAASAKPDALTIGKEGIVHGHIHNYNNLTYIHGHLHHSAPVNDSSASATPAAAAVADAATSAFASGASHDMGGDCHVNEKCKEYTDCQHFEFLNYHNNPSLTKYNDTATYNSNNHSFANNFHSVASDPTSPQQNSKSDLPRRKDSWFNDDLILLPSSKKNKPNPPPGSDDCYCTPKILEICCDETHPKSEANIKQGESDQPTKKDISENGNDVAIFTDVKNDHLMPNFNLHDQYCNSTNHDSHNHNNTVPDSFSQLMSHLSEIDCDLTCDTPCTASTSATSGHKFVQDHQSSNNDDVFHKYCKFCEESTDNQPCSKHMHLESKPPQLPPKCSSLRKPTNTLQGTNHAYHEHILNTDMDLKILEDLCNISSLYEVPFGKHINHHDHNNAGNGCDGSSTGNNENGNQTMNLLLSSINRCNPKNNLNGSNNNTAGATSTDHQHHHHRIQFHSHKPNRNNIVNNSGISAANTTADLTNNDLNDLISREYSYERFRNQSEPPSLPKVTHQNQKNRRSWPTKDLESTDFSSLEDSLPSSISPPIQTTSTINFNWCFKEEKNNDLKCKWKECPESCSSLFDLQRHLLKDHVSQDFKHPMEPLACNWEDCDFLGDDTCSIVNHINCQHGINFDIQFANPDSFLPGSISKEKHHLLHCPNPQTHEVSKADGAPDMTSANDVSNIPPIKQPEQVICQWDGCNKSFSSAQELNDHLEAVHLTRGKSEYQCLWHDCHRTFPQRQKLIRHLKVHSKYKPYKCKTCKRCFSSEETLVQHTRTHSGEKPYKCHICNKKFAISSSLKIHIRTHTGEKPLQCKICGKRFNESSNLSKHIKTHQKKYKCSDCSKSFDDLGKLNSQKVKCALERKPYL
Assay: PBM E-score (8-mer binding enrichment) (E-score (-0.5 to 0.5)); higher = stronger / more preferred TF binding
Details: protein concentration: 200 nM; construct: GST-full length
Whole data set: some 33,000 sequences, median “E-score (-0.5 to 0.5)” near -0.021, cut for the highest 2% near 0.32. For the sample, the highest values were picked, then their nearest neighbours and some sequences at random.
Rule: PBM E-score of 0.2 or more gives Y; anything lower gives N.

Study these solved cases before continuing.
• AGGTCACG = Y
• TAAGGTAA = Y

Check the entry `ATATGGGG` : does PBM E-score equal or exceed 0.2? N

Check the entry `AGGTATAA` : does PBM E-score equal or exceed 0.2? Y

Check the entry `CCTTAAGC` : does PBM E-score equal or exceed 0.2? N

Check the entry `AGTCATTA` : does PBM E-score equal or exceed 0.2? N

Check the entry `CTCCTTCA` : does PBM E-score equal or exceed 0.2? N

Check the entry `CCAGAACA` : does PBM E-score equal or exceed 0.2? N

Check the entry `TAGGGTGA` : does PBM E-score equal or exceed 0.2? Y

Check the entry `ACCTAGGT` : does PBM E-score equal or exceed 0.2? Y

Check the entry `GCGGGTCC` : does PBM E-score equal or exceed 0.2? N

Check the entry `CAAGGTAA` : does PBM E-score equal or exceed 0.2? N

Check the entry `CGGGTTTC` : does PBM E-score equal or exceed 0.2? Y
